Molecular target: Cytochrome P450 2C19 (Homo sapiens) (UniProt P33261)
Sequence (P33261 whole entry, looked up): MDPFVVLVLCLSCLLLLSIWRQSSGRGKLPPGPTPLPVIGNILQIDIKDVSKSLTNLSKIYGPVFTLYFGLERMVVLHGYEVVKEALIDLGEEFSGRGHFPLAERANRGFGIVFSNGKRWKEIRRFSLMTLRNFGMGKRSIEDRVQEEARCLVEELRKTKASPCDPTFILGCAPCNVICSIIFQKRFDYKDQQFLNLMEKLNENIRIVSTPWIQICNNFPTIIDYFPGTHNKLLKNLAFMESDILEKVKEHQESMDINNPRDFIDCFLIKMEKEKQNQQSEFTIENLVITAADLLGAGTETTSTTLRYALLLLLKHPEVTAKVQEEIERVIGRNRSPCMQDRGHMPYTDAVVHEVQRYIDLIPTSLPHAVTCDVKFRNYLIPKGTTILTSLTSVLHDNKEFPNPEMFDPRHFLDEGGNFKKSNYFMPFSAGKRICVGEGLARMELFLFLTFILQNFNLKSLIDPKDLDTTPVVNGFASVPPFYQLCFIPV
Assay: Cytochrome P450 Family 2 Subfamily C Member 19 (CYP2C19) small molecule antagonists: luciferase reporter qHTS assay (AID 1671197); note: nearly all actives have a fitted effect of over 65% in size; note: potency is the fitted concentration of half-maximal effect
Settings: P450-Glo CYP2C19 enzyme, luciferin luminescence, 1 h; series mostly up to 115 µM
Records with an inconclusive call do not appear. The source made the active and inactive calls. Calls come from the whole dose curve; as a rule, active = well fitted inhibition curve with a large enough effect in the repeat runs; inconclusive = weak or mixed curves; inactive = no such curve, though single readings can be large or run the other way.
QUANTITY: Potency

{"MOLECULE": "CCCC(=O)OC/C=C(\\C)CCC=C(C)C", "STUDY SYSTEM": "Cytochrome P450 2C19 (Homo sapiens) (UniProt P33261)", "RESULT": "inactive"}
{"MOLECULE": "C/C=C(\\C)C(C)=O", "STUDY SYSTEM": "Cytochrome P450 2C19 (Homo sapiens) (UniProt P33261)", "RESULT": "inactive"}
{"MOLECULE": "O=C(CCCCC(=O)Nc1c(I)cc(I)c(C(=O)O)c1I)Nc1c(I)cc(I)c(C(=O)O)c1I", "STUDY SYSTEM": "Cytochrome P450 2C19 (Homo sapiens) (UniProt P33261)", "RESULT": "inactive"}
{"MOLECULE": "CC(C)C[C@@H]1[C@H](c2ccccc2)OC(=O)N1CCCN1CCCCCC1", "STUDY SYSTEM": "Cytochrome P450 2C19 (Homo sapiens) (UniProt P33261)", "RESULT": "2.75 µM (active)"}
{"MOLECULE": "c1ccc2c(CC3=NCCN3)cccc2c1", "STUDY SYSTEM": "Cytochrome P450 2C19 (Homo sapiens) (UniProt P33261)", "RESULT": "inactive"}
{"MOLECULE": "CC1(C)[C@H]2CC[C@](C)(C2)[C@H]1O", "STUDY SYSTEM": "Cytochrome P450 2C19 (Homo sapiens) (UniProt P33261)", "RESULT": "inactive"}
{"MOLECULE": "O=NN(CCCl)C(=O)NC1CCCCC1", "STUDY SYSTEM": "Cytochrome P450 2C19 (Homo sapiens) (UniProt P33261)", "RESULT": "inactive"}
{"MOLECULE": "NCCOCCN", "STUDY SYSTEM": "Cytochrome P450 2C19 (Homo sapiens) (UniProt P33261)", "RESULT": "71 µM (active)"}
{"MOLECULE": "C=CCSSCCC", "STUDY SYSTEM": "Cytochrome P450 2C19 (Homo sapiens) (UniProt P33261)", "RESULT": "inactive"}
{"MOLECULE": "CC1(C)O[C@H]2CC(=O)OC[C@]23[C@H]2CC[C@@]4(C)[C@H](c5ccoc5)OC(=O)[C@H]5O[C@]54[C@]2(C)C(=O)C[C@@H]13", "STUDY SYSTEM": "Cytochrome P450 2C19 (Homo sapiens) (UniProt P33261)", "RESULT": "inactive"}
{"MOLECULE": "Cc1ccc(C(C)NC(=O)[C@@H](NC(=O)OC(C)C)C(C)C)cc1 (some centres not stated)", "STUDY SYSTEM": "Cytochrome P450 2C19 (Homo sapiens) (UniProt P33261)", "RESULT": "56.2 µM (active)"}
{"MOLECULE": "CCCCCCCCCOC(=O)c1ccccc1C(=O)OCCCCCCCCC", "STUDY SYSTEM": "Cytochrome P450 2C19 (Homo sapiens) (UniProt P33261)", "RESULT": "39.8 µM (active)"}

The origin of these recorded values is PubChem BioAssay (Tox21).
